Each entry below carries its reported hEphB6-SEAP-: absorbance at 450 nm, percentage with respect to hEphA4-SEAP-His as 100%.
# tgt: T1, human EphB6 (Homo sapiens, UniProt O15197)
# T1 construct: a protein of the extracellular region of each human Eph receptor fused with the SEAP protein and the His tag; made in house; host or cells: Expi293F cells
# T1 sequence (O15197 32-594 limits assumed): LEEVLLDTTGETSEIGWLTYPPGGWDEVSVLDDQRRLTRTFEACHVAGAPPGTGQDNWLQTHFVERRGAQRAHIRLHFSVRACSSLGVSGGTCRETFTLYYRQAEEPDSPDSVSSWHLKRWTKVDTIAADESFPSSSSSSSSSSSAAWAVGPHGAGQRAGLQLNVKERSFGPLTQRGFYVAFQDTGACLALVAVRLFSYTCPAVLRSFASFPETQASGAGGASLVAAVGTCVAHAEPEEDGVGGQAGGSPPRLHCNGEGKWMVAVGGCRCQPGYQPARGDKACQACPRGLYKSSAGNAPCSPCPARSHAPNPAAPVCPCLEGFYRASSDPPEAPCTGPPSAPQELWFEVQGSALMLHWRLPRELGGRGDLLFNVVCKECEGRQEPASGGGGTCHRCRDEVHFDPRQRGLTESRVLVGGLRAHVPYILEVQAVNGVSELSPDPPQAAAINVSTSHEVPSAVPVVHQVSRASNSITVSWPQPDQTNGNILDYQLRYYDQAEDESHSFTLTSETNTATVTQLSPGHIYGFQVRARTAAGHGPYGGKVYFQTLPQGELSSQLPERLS
# experiment.summary: Selectivity ELISA of humanized antibodies for human Eph receptor
# Type: binding
# experimental.conditions: coated protein 1 nM
Answer with a number only, understood to be in %.

Specify measured hEphB6-SEAP-: absorbance at 450 nm, percentage with respect to hEphA4-SEAP-His as 100% for 84 (antibody, V domains shown, constant regions without entry; synthetic humanized antibody light chain variable region sequence; synthetic humanized antibody heavy chain variable region sequence) VL: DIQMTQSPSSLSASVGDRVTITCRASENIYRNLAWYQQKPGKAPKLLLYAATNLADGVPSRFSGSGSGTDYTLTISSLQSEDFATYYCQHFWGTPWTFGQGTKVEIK VH: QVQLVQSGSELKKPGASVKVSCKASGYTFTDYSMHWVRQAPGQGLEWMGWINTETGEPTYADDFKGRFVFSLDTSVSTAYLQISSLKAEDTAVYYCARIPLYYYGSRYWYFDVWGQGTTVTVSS . 4.9

New cases:
Please look at this molecule and report its hEphB6-SEAP-: absorbance at 450 nm, percentage with respect to hEphA4-SEAP-His as 100%: 95 (antibody, V domains shown, constant regions without entry; synthetic humanized antibody light chain variable region sequence; synthetic humanized antibody heavy chain variable region sequence) VL: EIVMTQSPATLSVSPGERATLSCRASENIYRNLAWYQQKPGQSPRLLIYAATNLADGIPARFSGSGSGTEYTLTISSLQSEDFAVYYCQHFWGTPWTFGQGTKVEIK VH: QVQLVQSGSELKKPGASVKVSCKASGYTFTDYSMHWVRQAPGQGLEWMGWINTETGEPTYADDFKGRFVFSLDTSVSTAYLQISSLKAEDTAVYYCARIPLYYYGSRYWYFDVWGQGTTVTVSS 4.7

Provide measured hEphB6-SEAP-: absorbance at 450 nm, percentage with respect to hEphA4-SEAP-His as 100% value, entry: 154 (antibody, V domains shown, synthetic humanized antibody heavy chain variable region sequence; synthetic humanized antibody light chain variable region sequence) VH: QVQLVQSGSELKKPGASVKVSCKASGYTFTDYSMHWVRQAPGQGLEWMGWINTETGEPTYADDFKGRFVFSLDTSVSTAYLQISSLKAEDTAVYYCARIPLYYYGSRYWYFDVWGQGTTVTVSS VL: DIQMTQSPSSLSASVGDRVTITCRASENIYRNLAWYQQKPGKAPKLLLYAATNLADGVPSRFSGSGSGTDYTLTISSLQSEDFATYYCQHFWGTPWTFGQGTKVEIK 6.4

Output hEphB6-SEAP-: absorbance at 450 nm, percentage with respect to hEphA4-SEAP-His as 100% of 134 (antibody, V domains shown, synthetic humanized antibody heavy chain variable region sequence; synthetic humanized antibody light chain variable region sequence) VH: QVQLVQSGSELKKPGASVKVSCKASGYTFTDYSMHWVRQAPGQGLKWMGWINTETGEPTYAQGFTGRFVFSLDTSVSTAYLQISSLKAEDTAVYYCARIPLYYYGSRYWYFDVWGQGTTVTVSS VL: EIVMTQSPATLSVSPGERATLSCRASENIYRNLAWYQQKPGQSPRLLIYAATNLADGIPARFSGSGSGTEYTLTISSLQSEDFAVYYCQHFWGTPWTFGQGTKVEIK 5.2
